Hello, the source for this data is PubChem BioAssay AID248, in case you need it.

- Tested on: L1210 leukemia ip in BDF1 mice, survival T/C
- ASSAY COMMENT: NCI In Vivo Anticancer Drug Screen. Data for tumor model L1210 Leukemia (intraperitoneal) in B6D2F1 (BDF1) mice
- CONDITION: endpoint: mean survival time; dose: 100.0 mg/kg/injection; schedule: Q04DX003 (ip); vehicle: saline; higher = longer survival
Inconclusive results and toxic doses are left out.
Here, each record is paired with measured T/C data.
OBSERVATION TYPE: T/C

compound=COc1ccc2c(c1)c(=O)c(C(=O)O)cn2CCCOc1ccc([N+](=O)[O-])cc1 assayed_target="L1210 leukemia ip in BDF1 mice, survival T/C" result="107 % of control"
compound=O=S(=O)(O)F assayed_target="L1210 leukemia ip in BDF1 mice, survival T/C" result="89 % of control"
compound="CCCCCC(=O)NCC(=O)N1CCC(C(=O)NCCCCC(=O)OC)C1 (configuration not stated)" assayed_target="L1210 leukemia ip in BDF1 mice, survival T/C" result="97 % of control"
compound="O=C(NC(C(O)CO)C(O)C(O)CO)c1ccccc1 (configuration not stated)" assayed_target="L1210 leukemia ip in BDF1 mice, survival T/C" result="104 % of control"
compound=C=CCC(CC)(C(=O)O)C(=O)O assayed_target="L1210 leukemia ip in BDF1 mice, survival T/C" result="102 % of control"
compound=Cc1ccc(S(=O)(=O)C[n+]2cc(C)cc(C)c2)cc1 assayed_target="L1210 leukemia ip in BDF1 mice, survival T/C" result="95 % of control"
compound=CCOC(=O)c1cnc(C)nc1Nc1ccccc1Cl assayed_target="L1210 leukemia ip in BDF1 mice, survival T/C" result="104 % of control"
compound=NCCCOc1ccc([N+](=O)[O-])cc1Cl assayed_target="L1210 leukemia ip in BDF1 mice, survival T/C" result="111 % of control"
compound=Cc1ccc(S(=O)(=O)OCC(CO)(CO)[N+](=O)[O-])cc1 assayed_target="L1210 leukemia ip in BDF1 mice, survival T/C" result="97 % of control"
compound=CN(C)CCN1c2ccccc2Sc2ccccc21 assayed_target="L1210 leukemia ip in BDF1 mice, survival T/C" result="101 % of control"
compound=C[N+](C)(C)CCC[N+](C)(C)C assayed_target="L1210 leukemia ip in BDF1 mice, survival T/C" result="107 % of control"
compound=CNNC(=O)c1cccnc1 assayed_target="L1210 leukemia ip in BDF1 mice, survival T/C" result="98 % of control"

* * *

Here, each record is paired with measured T/C data.
- System: L1210 leukemia ip in BDF1 mice, survival T/C
- ASSAY COMMENT: NCI In Vivo Anticancer Drug Screen. Data for tumor model L1210 Leukemia (intraperitoneal) in B6D2F1 (BDF1) mice
- CONDITION: endpoint: mean survival time; dose: 400.0 mg/kg/injection; schedule: Q04DX002 (ip); vehicle: Klucel (hydroxypropylcellulose) (HPC); higher = longer survival
Inconclusive results and toxic doses are left out.
OBSERVATION TYPE: T/C

compound="O=C(CC(C[N+](=O)[O-])c1ccccc1)c1ccccc1 (stereo unspecified)" result="96 % of control"
compound=C/C(=N/Nc1ccc([N+](=O)[O-])cc1[N+](=O)[O-])C(C)(C)C result="93 % of control"
compound="CC1CCCC(C)[N+]1=C(Nc1cccc(Cl)c1)c1ccccc1 (stereo unspecified)" result="101 % of control"
compound=CC(=O)Nc1cccc(Cl)c1F result="107 % of control"
compound="N#Cc1cccc(C(Br)S(=O)(=O)c2ccccc2)c1 (stereo unspecified)" result="90 % of control"
compound="C1=CC2C1C1(Cc3ccccc3)N=NC2(Cc2ccccc2)C2C=CC21 (stereo unspecified)" result="87 % of control"

* * *

- System: L1210 leukemia ip in BDF1 mice, survival T/C
- ASSAY COMMENT: NCI In Vivo Anticancer Drug Screen. Data for tumor model L1210 Leukemia (intraperitoneal) in B6D2F1 (BDF1) mice
- CONDITION: endpoint: mean survival time; dose: 50.0 mg/kg/injection; schedule: Q01DX001 (ip); vehicle: saline; higher = longer survival
Inconclusive results and toxic doses are left out.
OBSERVATION TYPE: T/C

compound="OC1COC(n2cnc3c(=S)nc[nH]c32)C(O)C1O (stereo not drawn)" assayed_target="L1210 leukemia ip in BDF1 mice, survival T/C" result="115 % of control"
compound=CNc1c(Cl)n(C)c(=O)n(C)c1=O assayed_target="L1210 leukemia ip in BDF1 mice, survival T/C" result="101 % of control"
compound="COC1OC(CO)C(O)C(O)C1O (stereo not drawn)" assayed_target="L1210 leukemia ip in BDF1 mice, survival T/C" result="102 % of control"

* * *

Here, each record is paired with measured T/C data.
- System: L1210 leukemia ip in BDF1 mice, survival T/C
- ASSAY COMMENT: NCI In Vivo Anticancer Drug Screen. Data for tumor model L1210 Leukemia (intraperitoneal) in B6D2F1 (BDF1) mice
- CONDITION: endpoint: mean survival time; dose: 100.0 mg/kg/injection; schedule: Q01DX001 (ip); vehicle: saline; higher = longer survival
- Procedure: The antitumor activity of compounds was measured in mice bearing transplantable tumors. Survival or tumor size were measured and the results are expressed as the measurement made in the treated group (T) divided by the measurement made in the vehicle treated control group (C). The tumor model used in this assay is L1210 Leukemia (intraperitoneal) in B6D2F1 (BDF1) mice
Toxic doses and inconclusive results are not listed. Square brackets hold non-standard residues; d marks the D form. Peptide text beside a SMILES is read from it. * marks the point of attachment. ξ: configuration not given here. Pentanoyl = CCCCC(=O)*; ξP = O=C(O)C1CCCN1; Ava = NCCCCC(=O)O
OBSERVATION TYPE: T/C

compound="CC1(c2ccccc2)CC(c2ccccc2)=C(C#N)C(=O)N1 (stereo not given)" assayed_target="L1210 leukemia ip in BDF1 mice, survival T/C" result="98 % of control"
compound="COCCOC(C)C(/C=N/NC(N)=S)=N/NC(N)=S (stereo not given)" assayed_target="L1210 leukemia ip in BDF1 mice, survival T/C" result="100 % of control"
compound="O=C(NCCCl)NC1OCC(O)C(O)C1O (stereo not given)" assayed_target="L1210 leukemia ip in BDF1 mice, survival T/C" result="112 % of control"
compound=Nc1[nH]c(=O)ncc1F assayed_target="L1210 leukemia ip in BDF1 mice, survival T/C" result="102 % of control"
compound=CN=C(N)c1ccc(C(=O)OCCOC)cc1 assayed_target="L1210 leukemia ip in BDF1 mice, survival T/C" result="96 % of control"
compound="CCC[CH2][Sn]1([CH2]CCC)[O]C(=O)C2C(C=C(C)C)C=C(C)C(C)C2C(=O)[O]1 (stereo not given)" assayed_target="L1210 leukemia ip in BDF1 mice, survival T/C" result="117 % of control"
compound="Cc1ccc(S(=O)(=O)N2CCC(Br)C(=O)c3ccccc32)cc1 (stereo not given)" assayed_target="L1210 leukemia ip in BDF1 mice, survival T/C" result="94 % of control"
compound=CC(=O)Nc1ccc(Cc2ccc(Cl)cc2)cc1 assayed_target="L1210 leukemia ip in BDF1 mice, survival T/C" result="95 % of control"
compound=CCOP(=S)(S)OCC.[Pd] assayed_target="L1210 leukemia ip in BDF1 mice, survival T/C" result="100 % of control"
compound=C/C(=C1/SC(=S)NC1=O)c1ccccc1O assayed_target="L1210 leukemia ip in BDF1 mice, survival T/C" result="104 % of control"
compound="CC(=O)OCCC(OC(C)=O)c1ccccn1 (stereo not given)" assayed_target="L1210 leukemia ip in BDF1 mice, survival T/C" result="103 % of control"
compound=CCCCC(=O)CCl assayed_target="L1210 leukemia ip in BDF1 mice, survival T/C" result="103 % of control"
compound="CC[C@H](CC[C@@H](C)C1CC[C@H]2[C@@H]3CCC4=CC(=O)CC[C@]4(C)[C@H]3CC[C@]12C)C(C)C (stereo not given in full)" assayed_target="L1210 leukemia ip in BDF1 mice, survival T/C" result="98 % of control"
compound=CC(C)(C)C(=O)C/C=N/Nc1ccc([N+](=O)[O-])cc1[N+](=O)[O-] assayed_target="L1210 leukemia ip in BDF1 mice, survival T/C" result="96 % of control"
compound="CCCCCC1SC1CC1SC1CCCCCCCC(=O)N(CCCC)CCCC (stereo not given)" assayed_target="L1210 leukemia ip in BDF1 mice, survival T/C" result="96 % of control"
compound=CCCCC(=O)N/N=C/c1ccc(N(C)C)cc1Cl assayed_target="L1210 leukemia ip in BDF1 mice, survival T/C" result="93 % of control"
compound="O=C1N=C(c2ccccc2)OC1C(=O)c1ccccc1 (stereo not given)" assayed_target="L1210 leukemia ip in BDF1 mice, survival T/C" result="110 % of control"
compound=CC1OCCCCO1 assayed_target="L1210 leukemia ip in BDF1 mice, survival T/C" result="102 % of control"
compound="CCCCC(=O)NCC(=O)N1CCCC1C(=O)NCCCCC(=O)OC (stereo not given) (Pentanoyl-Gly-[ξP]-[Ava]-OMe)" assayed_target="L1210 leukemia ip in BDF1 mice, survival T/C" result="98 % of control"
compound=CCCCCCCCC/C(C)=C1/SC(=S)NC1=O assayed_target="L1210 leukemia ip in BDF1 mice, survival T/C" result="102 % of control"
compound=Cn1ncc2c(N(N)CCO)nc(-c3ccc([N+](=O)[O-])o3)nc21 assayed_target="L1210 leukemia ip in BDF1 mice, survival T/C" result="108 % of control"
compound=C/C(CCO)=N\NC(N)=S assayed_target="L1210 leukemia ip in BDF1 mice, survival T/C" result="98 % of control"
compound=CNNC(=O)c1cccnc1 assayed_target="L1210 leukemia ip in BDF1 mice, survival T/C" result="102 % of control"
compound="CC1(/C=N\\NC(=O)CCCC(=O)N/N=C/C2(C)CCC=CO2)CCC=CO1 (stereo not given)" assayed_target="L1210 leukemia ip in BDF1 mice, survival T/C" result="92 % of control"
compound=O=C(O)c1ccc2ccccc2n1.[Cu+2] assayed_target="L1210 leukemia ip in BDF1 mice, survival T/C" result="93 % of control"
compound=C(Cc1ccccc1)=Nc1ccc(N=CCc2ccccc2)cc1 assayed_target="L1210 leukemia ip in BDF1 mice, survival T/C" result="103 % of control"
compound=O=c1[nH]nc(SCc2ccccc2)c(=O)[nH]1 assayed_target="L1210 leukemia ip in BDF1 mice, survival T/C" result="108 % of control"
compound=O=C(O)/C=C/c1ccccc1Br assayed_target="L1210 leukemia ip in BDF1 mice, survival T/C" result="91 % of control"
compound=COc1ccc(-c2oc3ccccc3c(=O)c2O)cc1OC assayed_target="L1210 leukemia ip in BDF1 mice, survival T/C" result="98 % of control"
compound=CCOC(=O)c1[nH]cnc1N assayed_target="L1210 leukemia ip in BDF1 mice, survival T/C" result="96 % of control"
compound=O=[N+]([O-])c1ccc(N=C(Cl)c2cc(N3CCOCC3)ccn2)cc1 assayed_target="L1210 leukemia ip in BDF1 mice, survival T/C" result="94 % of control"
compound=O=C(CCCC(=O)NNC(=O)Nc1cccc(S(=O)(=O)F)c1)NNC(=O)Nc1cccc(S(=O)(=O)F)c1 assayed_target="L1210 leukemia ip in BDF1 mice, survival T/C" result="112 % of control"
compound="CCN(CC)C(C)(O)CN (stereo not given)" assayed_target="L1210 leukemia ip in BDF1 mice, survival T/C" result="98 % of control"
compound="CCN(CC)CCCNC(c1ccccc1)C(Cl)(Cl)Cl (stereo not given)" assayed_target="L1210 leukemia ip in BDF1 mice, survival T/C" result="96 % of control"
compound=COC(=O)/C=C/c1cccc([N+](=O)[O-])c1 assayed_target="L1210 leukemia ip in BDF1 mice, survival T/C" result="100 % of control"
compound=Oc1cccnc1I assayed_target="L1210 leukemia ip in BDF1 mice, survival T/C" result="98 % of control"
compound=Clc1ccc(/C=N/Nc2c3ccccc3nc3ccccc23)c(Cl)c1 assayed_target="L1210 leukemia ip in BDF1 mice, survival T/C" result="92 % of control"
compound=CCC[Si](C)(C)CCC assayed_target="L1210 leukemia ip in BDF1 mice, survival T/C" result="100 % of control"
compound=CC(=O)/C(=C\c1ccccc1)CNC(C)(C)C assayed_target="L1210 leukemia ip in BDF1 mice, survival T/C" result="92 % of control"
compound="NC(=O)c1ncn(C2CCCC2O)c1N (stereo not given)" assayed_target="L1210 leukemia ip in BDF1 mice, survival T/C" result="91 % of control"
compound=CCCc1cc(CN2CCCCC2)c(O)c(CN2CCCCC2)c1O assayed_target="L1210 leukemia ip in BDF1 mice, survival T/C" result="96 % of control"
compound=CCc1cccc(CC)c1NC(=O)Nc1ccc(Br)cc1 assayed_target="L1210 leukemia ip in BDF1 mice, survival T/C" result="86 % of control"
compound="CCOC(=O)C(=O)C1CCCCC1=O (stereo not given)" assayed_target="L1210 leukemia ip in BDF1 mice, survival T/C" result="108 % of control"
compound=c1cncc(Nc2c3ccccc3nc3ccccc23)c1 assayed_target="L1210 leukemia ip in BDF1 mice, survival T/C" result="97 % of control"
compound=O=C(OCc1ccc([N+](=O)[O-])o1)c1ccc(Cl)cc1 assayed_target="L1210 leukemia ip in BDF1 mice, survival T/C" result="97 % of control"
